Items are presented alongside their recorded combination Emax.
system: HPAC (Pancreatic Carcinoma); test: combination Emax (second highest fraction inhibited in the dose matrix, 72 h); higher = more inhibition; extreme values may be limits of the assay
# output: bare number, no unit

COMPOUND	TEST_SYSTEM	combination Emax
CC1(C)CCC(CN2CCN(c3ccc(C(=O)NS(=O)(=O)c4ccc(NCC5CCOCC5)c([N+](=O)[O-])c4)c(Oc4cnc5[nH]ccc5c4)c3)CC2)=C(c2ccc(Cl)cc2)C1 [Venetoclax] + Cc1cc2ncnn2cc1Nc1ncc2c(n1)n(C1CCOCC1)c(=O)n2C [AZD7648] (first compound max 1 µM, 7x7, partner max 10 µM)	HPAC (Pancreatic Carcinoma)	0.288
Cc1c2c(nn1C)CSCc1cc(n(C)n1)CSc1cc(c3ccccc3c1)OCCCc1c(C(=O)O)n(C)c3c-2c(Cl)ccc13 [AZD5991] + C[C@@H](Nc1cc(F)cc(F)c1)c1cc(C(=O)N(C)C)cc2c(=O)cc(N3CCOCC3)oc12 [AZD8186] (first compound max 1 µM, 7x7, partner max 3 µM)	HPAC (Pancreatic Carcinoma)	0.378
C[C@@H](c1ccc2nccn2c1)n1nnc2ncc(-c3cnn(C)c3)nc21 [Savolitinib] + Cc1c2c(nn1C)CSCc1cc(n(C)n1)CSc1cc(c3ccccc3c1)OCCCc1c(C(=O)O)n(C)c3c-2c(Cl)ccc13 [AZD5991] (first compound max 1 µM, 7x7, partner max 1 µM)	HPAC (Pancreatic Carcinoma)	0.168

Let us move to another entry and its combination Emax.
Prompt: Find the recorded combination Emax belonging to Cc1cc2ncnn2cc1Nc1ncc2c(n1)n(C1CCOCC1)c(=O)n2C [AZD7648] + C[C@@H]1COCCN1C2=NC(=NC(=C2)C3(CC3)[S@](=N)(=O)C)C4=C5C=CNC5=NC=C4 [AZD6738] (first compound max 10 µM, 7x7, partner max 10 µM) and report it.
Response: 0.672

----------
The reader will find reported combination Emax values listed item by item below.
test system: EM-2 (Chronic Myelogenous Leukemia); assay: combination Emax (second highest fraction inhibited in the dose matrix, 72 h); higher = more inhibition; extreme values may be limits of the assay
Field format: numeric only.

Before answering, review these 2 worked examples.
COMPOUND	combination Emax
CN(CCO)CC[C@H](CSc1ccccc1)Nc1ccc(S(=O)(=O)NC(=O)c2ccc(N3CCC([C@@H](O)c4ccccc4-c4ccc(Cl)cc4)CC3)cc2)cc1S(=O)(=O)C(F)(F)F [AZD4320] + C[C@@H](Nc1cc(F)cc(F)c1)c1cc(C(=O)N(C)C)cc2c(=O)cc(N3CCOCC3)oc12 [AZD8186] (first compound max 1 µM, 7x7, partner max 3 µM)	0.959
COc1cccc(OCCCN)c1-c1cc(Nc2cnc(C#N)cn2)n[nH]1 [Prexasertib] + Cc1cc2ncnn2cc1Nc1ncc2c(n1)n(C1CCOCC1)c(=O)n2C [AZD7648] (first compound max 1 µM, 7x7, partner max 10 µM)	0.99

Let's switch to this compound now.
Prompt: Quick one: combination Emax for COc1nnc2ccc(N3CCC(c4ccc(OCCN5CCN(C)C(=O)[C@H]5C)cc4)CC3)nn12 [AZD5153] + C[C@@H]1COCCN1C2=NC(=NC(=C2)C3(CC3)[S@](=N)(=O)C)C4=C5C=CNC5=NC=C4 [AZD6738] (first compound max 1 µM, 7x7, partner max 10 µM) ?
Response: 0.998

----------
system: SN12C (Kidney Carcinoma); assay: combination Emax (second highest fraction inhibited in the dose matrix, 72 h); higher = more inhibition; extreme values may be limits of the assay
Assign 1.0 to entries whose combination Emax meets or exceeds 0.3; assign 0.0 to the rest.

Prompt: Textbook exercise: given the entry CC1(C)CCC(CN2CCN(c3ccc(C(=O)NS(=O)(=O)c4ccc(NCC5CCOCC5)c([N+](=O)[O-])c4)c(Oc4cnc5[nH]ccc5c4)c3)CC2)=C(c2ccc(Cl)cc2)C1 [Venetoclax] + Cc1cc2ncnn2cc1Nc1ncc2c(n1)n(C1CCOCC1)c(=O)n2C [AZD7648] (first compound max 1 µM, 7x7, partner max 10 µM) , state whether its combination Emax is greater than or equal to 0.3.
Response: 0.0

Prompt: I'd appreciate it if you could say whether COc1cccc(OCCCN)c1-c1cc(Nc2cnc(C#N)cn2)n[nH]1 [Prexasertib] + CN(C)CCCOc1ccc(-c2ccc3ncc4c(c3c2)n(C2CCOCC2)c(=O)n4C)cn1 [AZD0156] (first compound max 1 µM, 7x7, partner max 1 µM) has combination Emax at least equal to 0.3.
Response: 1.0

Prompt: Hi team, for CN(CCO)CC[C@H](CSc1ccccc1)Nc1ccc(S(=O)(=O)NC(=O)c2ccc(N3CCC([C@@H](O)c4ccccc4-c4ccc(Cl)cc4)CC3)cc2)cc1S(=O)(=O)C(F)(F)F [AZD4320] + C1CN(CCC1(C(=O)N[C@@H](CCO)C2=CC=C(C=C2)Cl)N)C3=NC=NC4=C3C=CN4 [Capivasertib] (first compound max 1 µM, 7x7, partner max 3 µM) , is the recorded combination Emax at or above 0.3?
Response: 0.0

Prompt: Determine whether measured combination Emax meets or exceeds 0.3 for COc1cccc(OCCCN)c1-c1cc(Nc2cnc(C#N)cn2)n[nH]1 [Prexasertib] + C[C@@H]1COCCN1C2=NC(=NC(=C2)C3(CC3)[S@](=N)(=O)C)C4=C5C=CNC5=NC=C4 [AZD6738] (first compound max 1 µM, 7x7, partner max 10 µM)
Response: 1.0

Prompt: Identify whether the reported combination Emax of the following compound is 0.3 or greater: Cc1c2c(nn1C)CSCc1cc(n(C)n1)CSc1cc(c3ccccc3c1)OCCCc1c(C(=O)O)n(C)c3c-2c(Cl)ccc13 [AZD5991] + CN(C)CCCOc1ccc(-c2ccc3ncc4c(c3c2)n(C2CCOCC2)c(=O)n4C)cn1 [AZD0156] (first compound max 1 µM, 7x7, partner max 1 µM)
Response: 0.0

Prompt: // inclusive: combination Emax at least 0.3? input: Cc1cc2ncnn2cc1Nc1ncc2c(n1)n(C1CCOCC1)c(=O)n2C [AZD7648] + O=C(c1cc(Cc2n[nH]c(=O)c3ccccc23)ccc1F)N1CCN(C(=O)C2CC2)CC1 [Olaparib] (first compound max 10 µM, 7x7, partner max 10 µM)
Response: 0.0

----------
system: HPAC (Pancreatic Carcinoma); assay: Bliss excess, mean over the matrix (fraction); higher = more synergy
Measured Bliss excess by item
Returns: the value as a bare number; no unit string appended.

# count of solved cases: 3
MOLECULE	TEST_SYSTEM	Bliss excess
CCN(CCO)CCCOc1ccc2c(Nc3cc(CC(=O)Nc4cccc(F)c4)[nH]n3)ncnc2c1 [AZD2811] + O=C(c1cc(Cc2n[nH]c(=O)c3ccccc23)ccc1F)N1CCN(C(=O)C2CC2)CC1 [Olaparib] (first compound max 1 µM, 7x7, partner max 10 µM)	HPAC (Pancreatic Carcinoma)	0.0032
CN(C)CCCOc1ccc(-c2ccc3ncc4c(c3c2)n(C2CCOCC2)c(=O)n4C)cn1 [AZD0156] + O=C(c1cc(Cc2n[nH]c(=O)c3ccccc23)ccc1F)N1CCN(C(=O)C2CC2)CC1 [Olaparib] (first compound max 3 µM, partner max 3 µM)	HPAC (Pancreatic Carcinoma)	0.0152
Cc1c2c(nn1C)CSCc1cc(n(C)n1)CSc1cc(c3ccccc3c1)OCCCc1c(C(=O)O)n(C)c3c-2c(Cl)ccc13 [AZD5991] + Cn1cnc2c(F)c(Nc3ccc(Br)cc3Cl)c(C(=O)NOCCO)cc21 [Selumetinib] (first compound max 1 µM, 7x7, partner max 3 µM)	HPAC (Pancreatic Carcinoma)	0.005

Prompt: // Bliss excess lookup, key: COc1nnc2ccc(N3CCC(c4ccc(OCCN5CCN(C)C(=O)[C@H]5C)cc4)CC3)nn12 [AZD5153] + CCN(CCO)CCCOc1ccc2c(Nc3cc(CC(=O)Nc4cccc(F)c4)[nH]n3)ncnc2c1 [AZD2811] (first compound max 1 µM, 7x7, partner max 1 µM)
Response: -0.0283

----------
test system: SW756 (Cervical Carcinoma); assay: Bliss excess, mean over the matrix (fraction); higher = more synergy
Parameter threshold = -0.05. Response is Met when Bliss excess meets or exceeds it, else Not met.

COMPOUND	LABEL
COc1cc2ncnc(Nc3ccc(F)c(Cl)c3)c2cc1OCCCN1CCOCC1 [Gefitinib] + CC(C)n1c(=O)n(C)c2cnc3cc(F)c(-c4ccc(OCCCN5CCCCC5)nc4)cc3c21 [AZD1390] (first compound max 10 µM, 7x7, partner max 0.3 µM)	Not met

Prompt: Form field: Bliss excess at least -0.05? Entry: CC(=O)c1c(C)c2cnc(Nc3ccc(N4CCNCC4)cn3)nc2n(C2CCCC2)c1=O [Palbociclib] + Cc1c2c(nn1C)CSCc1cc(n(C)n1)CSc1cc(c3ccccc3c1)OCCCc1c(C(=O)O)n(C)c3c-2c(Cl)ccc13 [AZD5991] (first compound max 10 µM, 7x7, partner max 1 µM)
Response: Not met

Prompt: Textbook exercise: given the entry COc1cc2c(cc1OCCCCCOc1cc3c(cc1OC)C(=O)N1C=C(C)C[C@H]1C=N3)N=C[C@@H]1CC(C)=CN1C2=O [SG3199] + O=C(c1cc(Cc2n[nH]c(=O)c3ccccc23)ccc1F)N1CCN(C(=O)C2CC2)CC1 [Olaparib] (first compound max 0.001 µM, 7x7, partner max 10 µM) , state whether its Bliss excess is greater than or equal to -0.05.
Response: Met

Prompt: In plain terms: is recorded Bliss excess at least -0.05 for CC(=O)c1c(C)c2cnc(Nc3ccc(N4CCNCC4)cn3)nc2n(C2CCCC2)c1=O [Palbociclib] + Cn1cnc2c(F)c(Nc3ccc(Br)cc3Cl)c(C(=O)NOCCO)cc21 [Selumetinib] (first compound max 10 µM, 7x7, partner max 10 µM) ?
Response: Not met

Prompt: Does the reported Bliss excess for C=CCn1c(=O)c2cnc(Nc3ccc(N4CCN(C)CC4)cc3)nc2n1-c1cccc(C(C)(C)O)n1 [AZD1775] + C[C@@H]1COCCN1C2=NC(=NC(=C2)C3(CC3)[S@](=N)(=O)C)C4=C5C=CNC5=NC=C4 [AZD6738] (first compound max 1 µM, partner max 10 µM) fall at or above the -0.05 mark?
Response: Met

Prompt: Could you please find out whether CC1(C)CCC(CN2CCN(c3ccc(C(=O)NS(=O)(=O)c4ccc(NCC5CCOCC5)c([N+](=O)[O-])c4)c(Oc4cnc5[nH]ccc5c4)c3)CC2)=C(c2ccc(Cl)cc2)C1 [Venetoclax] + Cc1cc2ncnn2cc1Nc1ncc2c(n1)n(C1CCOCC1)c(=O)n2C [AZD7648] (first compound max 1 µM, 7x7, partner max 10 µM) has Bliss excess that meets -0.05 or exceeds it?
Response: Met

Prompt: Is Bliss excess at least -0.05? Consider Cc1c2c(nn1C)CSCc1cc(n(C)n1)CSc1cc(c3ccccc3c1)OCCCc1c(C(=O)O)n(C)c3c-2c(Cl)ccc13 [AZD5991] + C[C@@H](Nc1cc(F)cc(F)c1)c1cc(C(=O)N(C)C)cc2c(=O)cc(N3CCOCC3)oc12 [AZD8186] (first compound max 1 µM, 7x7, partner max 3 µM)
Response: Met
